This listing pairs binders with measured kon.
target-or-test-system: T1, human Proprotein Convertase Subtilisin-like/Kexin type 9 (human, UniProt Q8NBP7 31-692, limits assumed)
T1 construct: Biotinylated in the ELISAs; unlabelled analyte in BLI and SPR; also called human PCSK9; PCSK9
T1 sequence (Q8NBP7 31-692 limits assumed): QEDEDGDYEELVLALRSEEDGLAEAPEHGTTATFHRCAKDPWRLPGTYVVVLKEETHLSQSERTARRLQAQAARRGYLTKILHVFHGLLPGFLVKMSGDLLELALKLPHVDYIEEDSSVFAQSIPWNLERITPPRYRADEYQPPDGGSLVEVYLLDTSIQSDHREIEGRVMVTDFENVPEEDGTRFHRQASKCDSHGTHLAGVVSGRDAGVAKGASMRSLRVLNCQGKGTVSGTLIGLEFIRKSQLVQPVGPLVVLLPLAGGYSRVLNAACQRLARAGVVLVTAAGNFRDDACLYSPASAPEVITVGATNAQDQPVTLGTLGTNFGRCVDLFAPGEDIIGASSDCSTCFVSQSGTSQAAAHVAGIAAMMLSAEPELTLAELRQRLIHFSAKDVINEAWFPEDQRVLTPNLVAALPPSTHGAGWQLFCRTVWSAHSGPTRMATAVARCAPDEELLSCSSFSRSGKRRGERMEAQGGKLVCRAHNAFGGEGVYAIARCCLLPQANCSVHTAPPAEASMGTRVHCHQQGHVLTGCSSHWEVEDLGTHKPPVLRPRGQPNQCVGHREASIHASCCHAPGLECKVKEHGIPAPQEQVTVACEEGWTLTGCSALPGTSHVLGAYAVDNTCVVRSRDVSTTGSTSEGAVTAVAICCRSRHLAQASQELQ
assay-overview: BLI (Octet QK), biotinylated antibody on streptavidin sensors, human PCSK9 in solution, 1:1 fit
Field format: number, assumed M⁻¹ s⁻¹, no unit text.

Record excerpt, results attached:
binder: Ab3 (antibody, human IgG1, kappa, N297A, V domains shown, also called antibody Ab3) VH: QSVEESGGRLVTPGGSLTLTCTASGFSLSSYYMSWVRQAPGKGLEWIGIIYPSGSTYYASWAKGRFTISKTSTTVDLKITSPTVEDTATYFCARGGAYATLNLWGPGTLVTVSS VL: AVLTQTPSPVSAAVGGTVTISCQSSQSVYHNNLLSWYQQKPGQPPKLLIYDASKLTSGVSSRFSGSGSGTQFTLTISGVQCDDAATYYCLGGYDDDADNGFGGGTEVVVKR
unit-abbreviation: M⁻¹ s⁻¹
kon: 94400
//
binder: Ab13 (antibody, human IgG1, kappa, N297A, V domains shown, also called antibody Ab13) VH: QSVEESGGRLVTPGTPLTLTCTVSGIDLSTYGVGWVRQAPGKGLEYIGIISSSGSTYYASWAKGRFTISKTSSTTVDLKMTSLTTEDTATYFCARDWSSTTGYYGYFNMWGPGTLVTVSS VL: AFELTQTPSPVSAAVGGTVTIKCQASQSISTALAWYQQKPGQPPKLLIYGASNLESGVPSRFSGSGSGTQFTLTISDLECADAAIYYCQSSYGSSTLAFGGGTEVVVKR
unit-abbreviation: M⁻¹ s⁻¹
kon: 159000

Query: Quick one: kon for Ab19 (antibody, human IgG1, kappa, N297A, V domains shown, also called antibody Ab19) VH: EVQLVESGGGLVQPGGSLRLSCAASGIDLSSYAMGWVRQAPGKGLEYIGIIVSYGPTYYASWAKGRFTISRDNSKNTVYLQMNSLRAEDTATYFCARDLDAQSSGYYGAFNIWGQGTLVTVSS VL: DIQMTQSPSTLSASVGDRVTITCQASQSISTALAWYQQKPGKAPKLLIYAASPLASGVPSRFSGSGSGTEFTLTISSLQPDDFATYYCQSYYGSSNIAFGGGTKVEIKR ?
Result: 88000

Query: Query Ab20 (antibody, human IgG1, kappa, N297A, V domains shown, also called antibody Ab20) VH: EVQLVESGGGLVQPGGSLRLSCAASGIDLSSYAMGWVRQAPGKGLEYIGIIVSYGPTYYASWAKGRFTISRDNSKSTVYLQMNSLRAEDTATYFCARDLDAQSSGYYGAFNIWGQGTLVTVSS VL: DIQMTQSPSTLSASVGDRVTITCQASQSISTALAWYQQKPGKAPKLLIYAASPLASGVPSRFSGSGSGTEFTLTISSLQPDDFATYYCQSYYGSSNIAFGGGTKVEIKR next
Result: 108000

Query: Repeat for the following binder: Ab2 (antibody, human IgG1, kappa, N297A, V domains shown, also called antibody Ab2) VH: QSVEESGGRLVTPGTPLTLTCTVSGFSLSSYAMSWVRQAPGKGLEWIGIIDAIDNTYYASWAKGRFTISKTSTTVDLKMTSLTTGDTATYFCARASILGYSIATGFNIWGPGTLVTVSS VL: AYDMTQTPASVEVAVGGTVTIKCQASQSISSHLAWYQQKSGQPPKLLIYRASTLESGVSSRFKGSGSGTEFTLTISDLECADAATYYCQQGYGVSDVDNGFGGGTEVVVKR
Result: 107000
